- studySystem: UniProtKB P97468
- Sequence (P97468 whole entry): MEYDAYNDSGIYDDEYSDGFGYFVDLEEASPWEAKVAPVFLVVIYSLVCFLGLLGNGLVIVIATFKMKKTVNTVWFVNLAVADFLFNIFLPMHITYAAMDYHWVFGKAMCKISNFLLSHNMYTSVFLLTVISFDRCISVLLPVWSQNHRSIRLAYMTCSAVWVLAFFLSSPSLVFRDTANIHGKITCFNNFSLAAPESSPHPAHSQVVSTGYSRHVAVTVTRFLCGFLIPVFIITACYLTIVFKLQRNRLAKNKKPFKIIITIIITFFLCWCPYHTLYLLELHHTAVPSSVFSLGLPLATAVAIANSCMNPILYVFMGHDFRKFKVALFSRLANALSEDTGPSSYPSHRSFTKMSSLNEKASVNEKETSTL
- protocolText: Inhibition of chemR23 expressed in mouse BA/F3 cells assessed as reduction in chemerin-induced intracellular calcium ion concentration preincubated for 45 mins followed by chemerin addition
Each entry below carries its reported IC50.
Write the value in µM as a bare number.

CCCCN(c1nc2ccccc2o1)[C@H](C)c1ccc(-c2ccccc2-c2nnn[nH]2)cc1: 0.15

We now examine a further compound.
Data request: Complete the entry with IC50 for CCCCN(c1nc2cc(C(=O)NC)ccc2o1)[C@H](C)c1ccc(-c2ccccc2-c2nnn[nH]2)cc1
Data returned: 0.15

----------
- studySystem: Chemerin-like receptor 1 (Homo sapiens, UniProt Q99788)
- Sequence (Q99788 whole entry): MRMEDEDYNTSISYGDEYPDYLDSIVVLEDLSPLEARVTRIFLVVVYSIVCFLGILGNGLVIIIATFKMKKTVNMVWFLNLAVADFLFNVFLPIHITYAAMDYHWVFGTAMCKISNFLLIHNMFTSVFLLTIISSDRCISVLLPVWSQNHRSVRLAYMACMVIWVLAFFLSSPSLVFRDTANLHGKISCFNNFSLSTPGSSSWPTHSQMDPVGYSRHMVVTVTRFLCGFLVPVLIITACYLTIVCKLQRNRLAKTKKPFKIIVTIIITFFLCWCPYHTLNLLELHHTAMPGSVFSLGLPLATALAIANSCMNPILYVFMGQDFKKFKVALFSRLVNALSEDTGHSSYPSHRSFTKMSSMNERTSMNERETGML
- protocolText: Agonist activity at chemR23 expressed in human CAL1 cells assessed as increase in intracellular calcium ion concentration
propertyName: pEC50
pEC50 here is simply -log10 of the concentration when that concentration is written in mol/L.

CCCCN(c1nc2cc(C(=O)NC)ccc2o1)[C@H](C)c1ccc(-c2ccccc2-c2nnn[nH]2)cc1: 6.55
CCCCN(Cc1ccc(-c2ccccc2-c2nnn[nH]2)cc1)c1nc2cc(C)ccc2o1: 5.41
CCCCN(c1nc2cc(CNC(=O)NC)ccc2o1)[C@H](C)c1ccc(-c2ccccc2-c2nnn[nH]2)cc1: 5.89
CCCCN(Cc1ccc(-c2ccccc2-c2nnn[nH]2)cc1)c1nc2cc(CC(=O)NC)ccc2o1: 5.41
CCCCN(c1nc2cc(CC(=O)NC)ccc2o1)[C@H](C)c1ccc(-c2ccccc2-c2nnn[nH]2)cc1: 5.64
CCCCN(c1nc2ccccc2o1)C(CC)c1ccc(-c2ccccc2-c2nnn[nH]2)cc1 (stereo not drawn): 5.35
CCCCN(Cc1ccc(-c2ccccc2-c2nnn[nH]2)cc1)c1nc2ccccc2o1: 5.28

We now examine a further compound.
Data request: Complete the entry with pEC50 for CCCCN(c1nc2ccccc2o1)C(C)c1ccc(-c2ccccc2-c2nnn[nH]2)cc1 (racemic)
Data returned: 5.57

----------
- studySystem: UniProt Q99788
- protocolText: Agonist activity at chemR23 expressed in human CAL1 cells assessed as increase in intracellular calcium ion concentration
Each entry below carries its reported pEC50.
pEC50 here is simply -log10 of the concentration when that concentration is written in mol/L.

Consider the worked cases shown below.
CCCCN(c1nc2cc(NC(C)=O)ccc2o1)[C@H](C)c1ccc(-c2ccccc2-c2nnn[nH]2)cc1: 5.82
c1ccc(-c2nnn[nH]2)c(-c2ccc(CN(CC3CCCC3)c3nc4ccccc4o3)cc2)c1: 5.08

Data request: Complete the entry with pEC50 for CCCCCN(Cc1ccc(-c2ccccc2-c2nnn[nH]2)cc1)c1nc2ccccc2o1
Data returned: 5.18

Data request: Complete the entry with pEC50 for CCCCN(c1nc2ccccc2o1)[C@H](C)c1ccc(-c2ccccc2-c2nnn[nH]2)cc1
Data returned: 5.92

----------
- studySystem: Chemerin-like receptor 1 (Homo sapiens)
- protocolText: Inhibition of chemR23 in human CAL1 cells assessed as reduction in chemerin-induced intracellular calcium ion concentration preincubated for 45 mins followed by chemerin addition
pIC50: −log10 of the molar value.
I would appreciate it if you labelled entries yes (1) when pIC50 is 6 or higher, otherwise no (0).

Data request: Test whether the compound c1ccc(CN(Cc2ccc(-c3ccccc3-c3nnn[nH]3)cc2)c2nc3ccccc3o2)cc1 records pIC50 of 6 or higher.
Data returned: no (0)

Data request: Test whether the compound CCCCN(c1nc2cc(CC(=O)NC)ccc2o1)[C@H](C)c1ccc(-c2ccccc2-c2nnn[nH]2)cc1 records pIC50 of 6 or higher.
Data returned: yes (1)

Data request: Test whether the compound c1ccc(-c2nnn[nH]2)c(-c2ccc(CN(CC3CCCC3)c3nc4ccccc4o3)cc2)c1 records pIC50 of 6 or higher.
Data returned: no (0)

Data request: Test whether the compound c1ccc(CN(Cc2ccc(-c3ccccc3-c3nnn[nH]3)cc2)c2nc3ccccc3o2)nc1 records pIC50 of 6 or higher.
Data returned: no (0)

Data request: Test whether the compound CCCCN(c1nc2cc(NC(N)=O)ccc2o1)[C@H](C)c1ccc(-c2ccccc2-c2nnn[nH]2)cc1 records pIC50 of 6 or higher.
Data returned: yes (1)

Data request: Test whether the compound CCCCN(c1nc2ccccc2o1)C(C)(C)c1ccc(-c2ccccc2-c2nnn[nH]2)cc1 records pIC50 of 6 or higher.
Data returned: no (0)

Data request: Test whether the compound CCCCN(c1nc2cc(NC(=O)N(C)C)ccc2o1)[C@H](C)c1ccc(-c2ccccc2-c2nnn[nH]2)cc1 records pIC50 of 6 or higher.
Data returned: yes (1)

Data request: Test whether the compound c1ccc(-c2nnn[nH]2)c(-c2ccc(CN(Cc3ccncc3)c3nc4ccccc4o3)cc2)c1 records pIC50 of 6 or higher.
Data returned: no (0)

Data request: Test whether the compound CCCCN(c1nc2cc(NC(=O)NC)ccc2o1)[C@H](C)c1ccc(-c2ccccc2-c2nnn[nH]2)cc1 records pIC50 of 6 or higher.
Data returned: yes (1)

Data request: Test whether the compound CCCCN(Cc1ccc(-c2ccccc2-c2nnn[nH]2)cc1)c1nc2cc(C)ccc2o1 records pIC50 of 6 or higher.
Data returned: no (0)

Data request: Test whether the compound CCCCN(Cc1ccc(-c2ccccc2-c2nnn[nH]2)cc1)c1nc2cc(Cl)cc(C)c2o1 records pIC50 of 6 or higher.
Data returned: no (0)

Data request: Test whether the compound COCCN(Cc1ccc(-c2ccccc2-c2nnn[nH]2)cc1)c1nc2ccccc2o1 records pIC50 of 6 or higher.
Data returned: no (0)

Data request: Test whether the compound CCCCN(c1nc2cc(N(C)C(N)=O)ccc2o1)[C@H](C)c1ccc(-c2ccccc2-c2nnn[nH]2)cc1 records pIC50 of 6 or higher.
Data returned: no (0)

Data request: Test whether the compound CCCCN(c1nc2ccccc2o1)[C@@H](C)c1ccc(-c2ccccc2-c2nnn[nH]2)cc1 records pIC50 of 6 or higher.
Data returned: no (0)
